Test system: Danio rerio larvae (5 dpf)
MEASUREMENT_NOTES: difference in excitability vs DMSO (percentage points); higher = more excitable than DMSO
MEASUREMENT_CONTEXT: 10 µM; exposure time 6 h
Counter-ions that a name gives are not always drawn.
Rule: 1 for difference in excitability not less than 4, 0 for anything less.

COMPOUND: COc1ccccc1OCCNCC(O)COc1cccc2[nH]c3ccccc3c12 (stereo unspecified) [Carvedilol]
GROUP_LABEL: 1

COMPOUND: S=c1nc[nH]c2nc[nH]c12 [6-Mercaptopurine (hydrate)]
GROUP_LABEL: 1

COMPOUND: COc1ccc(S(=O)(=O)Nc2ccccc2CN(C)C/C=C/c2ccc(Cl)cc2)cc1 [KN-92 (hydrochloride)]
GROUP_LABEL: 1

COMPOUND: CC(=O)N[C@H]1[C@H]([C@H](O)[C@H](O)CO)OC(C(=O)O)=C[C@@H]1NC(=N)N [Zanamivir]
GROUP_LABEL: 0

COMPOUND: CCCC(=O)O[C@]1(C(=O)COC(C)=O)CC[C@H]2[C@@H]3C[C@H](F)C4=CC(=O)C=C[C@]4(C)[C@@]3(F)[C@@H](O)C[C@@]21C [Difluprednate]
GROUP_LABEL: 0

COMPOUND: C[C@]12C=CC(=O)N[C@@H]1CC[C@@H]1[C@@H]2CC[C@]2(C)[C@@H](C(=O)Nc3cc(C(F)(F)F)ccc3C(F)(F)F)CC[C@@H]12 [Dutasteride]
GROUP_LABEL: 1

COMPOUND: Cc1ccc(N(CC2=NCCN2)c2cccc(O)c2)cc1 [Phentolamine (mesylate)]
GROUP_LABEL: 0

COMPOUND: CN(C/C=C/C#CC(C)(C)C)Cc1cccc2ccccc12 [Terbinafine (hydrochloride)]
GROUP_LABEL: 1

COMPOUND: CNCCC(Oc1ccc(C(F)(F)F)cc1)c1ccccc1 (stereo unspecified) [Fluoxetine (hydrochloride)]
GROUP_LABEL: 0

COMPOUND: C[C@H]1CN(C[C@H](Cc2ccccc2)C(=O)NCC(=O)O)CC[C@@]1(C)c1cccc(O)c1 [Alvimopan]
GROUP_LABEL: 0

COMPOUND: C1N2CN3CN1CN(C2)C3 [Methenamine Hippurate]
GROUP_LABEL: 0

COMPOUND: Cn1ccnc1S [Methimazole]
GROUP_LABEL: 0

COMPOUND: CO/N=C(\C(=O)N[C@@H]1C(=O)N2C(C(=O)O)=C(COC(C)=O)CS[C@H]12)c1csc(N)n1 [Cefotaxime (sodium salt)]
GROUP_LABEL: 0

COMPOUND: CCOC(=O)[C@H](CCc1ccccc1)N[C@@H](C)C(=O)N1Cc2cc(OC)c(OC)cc2C[C@H]1C(=O)O [Moexipril (hydrochloride)]
GROUP_LABEL: 1

COMPOUND: CC(COc1ccccc1)N(CCCl)Cc1ccccc1 (stereo unspecified) [Phenoxybenzamine (hydrochloride)]
GROUP_LABEL: 1

COMPOUND: Nc1cccc2c1CN(C1CCC(=O)NC1=O)C2=O (stereo unspecified) [Lenalidomide]
GROUP_LABEL: 0
